- target_system: USP28 (His-tagged USP28-FL-mammalian) (Homo sapiens)
- Construct: Expression of USP28 (1-1077)-TEV-6*His (pTT5 vector); made in house; host or cells: Expi293f cells (pTT5 vector)
- Sequence (Q96RU2 whole entry): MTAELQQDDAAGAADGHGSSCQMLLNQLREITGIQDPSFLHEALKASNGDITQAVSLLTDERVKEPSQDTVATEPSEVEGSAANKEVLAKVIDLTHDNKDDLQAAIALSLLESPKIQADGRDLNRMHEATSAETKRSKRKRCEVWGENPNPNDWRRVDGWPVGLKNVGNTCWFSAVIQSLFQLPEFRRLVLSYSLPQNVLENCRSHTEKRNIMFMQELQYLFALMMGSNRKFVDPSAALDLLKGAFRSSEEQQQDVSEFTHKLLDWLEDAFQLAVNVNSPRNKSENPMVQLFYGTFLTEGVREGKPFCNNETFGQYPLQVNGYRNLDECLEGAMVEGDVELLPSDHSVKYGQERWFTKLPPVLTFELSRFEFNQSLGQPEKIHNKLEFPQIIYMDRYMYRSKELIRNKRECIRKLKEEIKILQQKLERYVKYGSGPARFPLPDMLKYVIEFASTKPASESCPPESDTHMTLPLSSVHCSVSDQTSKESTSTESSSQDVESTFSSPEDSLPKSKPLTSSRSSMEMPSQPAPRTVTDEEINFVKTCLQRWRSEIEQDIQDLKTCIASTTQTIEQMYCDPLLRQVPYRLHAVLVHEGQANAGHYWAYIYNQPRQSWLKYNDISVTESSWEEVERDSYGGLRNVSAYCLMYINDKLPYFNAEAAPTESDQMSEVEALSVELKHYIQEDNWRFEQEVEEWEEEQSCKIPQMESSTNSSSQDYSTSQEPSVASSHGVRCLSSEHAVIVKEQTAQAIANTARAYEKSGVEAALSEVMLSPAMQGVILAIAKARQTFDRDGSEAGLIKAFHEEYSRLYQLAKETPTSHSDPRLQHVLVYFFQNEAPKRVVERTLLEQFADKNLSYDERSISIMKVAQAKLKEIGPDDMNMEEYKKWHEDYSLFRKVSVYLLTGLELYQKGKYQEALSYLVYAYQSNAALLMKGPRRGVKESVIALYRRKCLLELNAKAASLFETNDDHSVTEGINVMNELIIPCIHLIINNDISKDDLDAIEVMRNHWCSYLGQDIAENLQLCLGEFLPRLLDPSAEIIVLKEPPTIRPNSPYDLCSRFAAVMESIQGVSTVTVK
- experimental_details: Ubiquitin-Rhodamine 110 Assay for USP28 Activity, Example A-1(a)
- Format: biochemical
- run_conditions: Ubiquitin-Rhodamine 110 assay, Example A-1(a); read-out: USP28 A-1(a) IC50 range
- Excerpt: Example A-1(a): Biochemical Assay: Ubiquitin-Rhodamine 110 Assay for USP28 Activity […] For assay formats Example A-1(a), A-1(b), and A-2, data were reported as percent inhibition compared with control wells based on the following equation: % inh=1−((FLU−AveLow)/(AveHigh−AveLow)) where FLU=measured Fluorescence, AveLow=average Fluorescence of no enzyme control (n=16), and AveHigh=average Fluorescence of DMSO control (n=16). […]
measured_property: IC50

chemical_string | target_system | observed
CN[C@@H]1CN(c2ccc3c(n2)CC[C@H](NC(=O)c2sc4nc(C)ccc4c2N)C3)C[C@]1(C)O | USP28 (His-tagged USP28-FL-mammalian) (Homo sapiens) | 50 to 200 nM

# context switch: different compound, same IC50
Query block: Write down the reported IC50 of CO[C@H]1CN(c2ccc3c(c2)OC[C@H](NC(=O)c2sc4nc(C)cnc4c2N)C3)C[C@@H]1N , test system: USP28 (His-tagged USP28-FL-mammalian) (Homo sapiens).
Result block: 1 to 50 nM
